Organism: Rattus norvegicus
Assay: Open TG-GATES - Regimen: Daily Repeat
Assay type: toxicity, organism-based, Sprague-Dawley
Set-up: regimen Daily Repeat, gender Male, age 6 weeks
Settings: in vivo, po, 0 mg/kg, […], tissue Blood, route gavage, dose level Control, time 14 day
Please respond with reported APTT for every item in the list.
Mention the unit after the number when you answer.

# input Tell me measured APTT for CC(=O)Oc1ccccc1C(=O)O [ASPIRIN] please.
# output 20.2 s

# input Tell me measured APTT for O=C(O)c1cc(/N=N/c2ccc(S(=O)(=O)Nc3ccccn3)cc2)ccc1O [SULFASALAZINE] please.
# output 19.7 s

# input Tell me measured APTT for CN(C)CCC=C1c2ccccc2CCc2ccccc21 [AMITRIPTYLINE] please.
# output 17.3 s

# input Tell me measured APTT for Clc1ccccc1CN1CCc2sccc2C1 [TICLOPIDINE] please.
# output 20.6 s

# input Tell me measured APTT for Cn1c(=O)c2[nH]cnc2n(C)c1=O.O [THEOPHYLLINE] please.
# output 24.2 s

# input Tell me measured APTT for NC(=O)N1c2ccccc2C=Cc2ccccc21 [CARBAMAZEPINE] please.
# output 22 s

# input Tell me measured APTT for O=C(O)c1cn(C2CC2)c2cc(N3CCNCC3)c(F)cc2c1=O [CIPROFLOXACIN] please.
# output 16.4 s

# input Tell me measured APTT for COc1ccc(Cc2nccc3cc(OC)c(OC)cc23)cc1OC [PAPAVERINE] please.
# output 22.8 s

# input Tell me measured APTT for COc1ccc2c(c1)c(CC(=O)O)c(C)n2C(=O)c1ccc(Cl)cc1 [INDOMETHACIN] please.
# output 16.7 s
